Where do these numbers come from? They come from ChEMBL document CHEMBL4033626.

# key: entry, value: viability at 24 h, 10 µM
# Assay Remarks: Cytotoxicity against mouse RAW264.7 cells assessed as cell viability at 10 uM after 24 hrs by MTS assay relative to control
# Assay type: cell-based
# Condition Context: read-out: Activity
Endpoint Name: viability at 24 h, 10 µM

                     structure_notation             endpoint_name  result
0  O=C1/C(=C/c2ccc(Br)cc2)Cc2ccc(O)cc21  viability at 24 h, 10 µM   < 90%
1         O=C1/C(=C/c2ccccc2)Cc2ccccc21  viability at 24 h, 10 µM   < 90%

###

# Tested on: RAW264.7
# Assay Remarks: Cytotoxicity against mouse RAW264.7 cells at 10 uM after 24 hrs by MTS assay
# Type: cell-based
# Condition Context: raw264.7, 24 h
Endpoint Name: Activity

                          structure_notation  endpoint_name     result
 0      O=C1/C(=C/c2cccc(Br)c2)Cc2cc(O)ccc21       Activity  Non-Toxic
 1  O=C1/C(=C/c2ccc(OC(F)(F)F)cc2)Cc2c(O)cccc21       Activity  Non-Toxic
 2         O=C1/C(=C/c2ccccc2F)Cc2ccc(O)cc21       Activity  Non-Toxic
 3  O=C1/C(=C/c2cccc(OC(F)(F)F)c2)Cc2cc(O)ccc21       Activity  Non-Toxic
 4       O=C1/C(=C/c2cccc(F)c2)Cc2cc(O)ccc21       Activity  Non-Toxic
 5  O=C1/C(=C/c2ccc(OC(F)(F)F)cc2)Cc2ccc(O)cc21       Activity  Non-Toxic
 6  O=C1/C(=C/c2ccc(OC(F)(F)F)cc2)Cc2cc(O)ccc21       Activity  Non-Toxic
 7      O=C1/C(=C/c2ccc(Br)cc2)Cc2cc(O)ccc21       Activity  Non-Toxic
 8  O=C1/C(=C/c2ccc(C(F)(F)F)cc2)Cc2cccc(O)c21       Activity  Non-Toxic
 9         O=C1/C(=C/c2ccccc2F)Cc2c(O)cccc21       Activity  Non-Toxic
10      O=C1/C(=C/c2cccc(Br)c2)Cc2ccc(O)cc21       Activity  Non-Toxic
11       O=C1/C(=C/c2ccc(F)cc2)Cc2cccc(O)c21       Activity  Non-Toxic
12        O=C1/C(=C/c2ccccc2Br)Cc2c(O)cccc21       Activity  Non-Toxic
13       O=C1/C(=C/c2ccc(F)cc2)Cc2ccc(O)cc21       Activity  Non-Toxic
14        O=C1/C(=C/c2ccccc2Br)Cc2ccc(O)cc21       Activity  Non-Toxic
15  O=C1/C(=C/c2ccc(C(F)(F)F)cc2)Cc2c(O)cccc21       Activity  Non-Toxic
16        O=C1/C(=C/c2ccccc2Br)Cc2cc(O)ccc21       Activity  Non-Toxic
17  O=C1/C(=C/c2ccc(C(F)(F)F)cc2)Cc2ccc(O)cc21       Activity  Non-Toxic
18       O=C1/C(=C/c2ccc(F)cc2)Cc2c(O)cccc21       Activity  Non-Toxic
19  O=C1/C(=C/c2ccccc2C(F)(F)F)Cc2cc(O)ccc21       Activity  Non-Toxic
20  O=C1/C(=C/c2ccccc2C(F)(F)F)Cc2cccc(O)c21       Activity  Non-Toxic
21   O=C1/C(=C/c2ccc(C(F)(F)F)cc2)Cc2ccccc21       Activity  Non-Toxic
22  O=C1/C(=C/c2cccc(OC(F)(F)F)c2)Cc2cccc(O)c21       Activity  Non-Toxic
23         O=C1/C(=C/c2ccc(Br)cc2)Cc2ccccc21       Activity  Non-Toxic
